assay: NCI Yeast Anticancer Drug Screen. Data for the bub3 strain (AID 167); conditions: S. cerevisiae bub3 mutant strain, at 50.0 µM, stronger effect = higher value
Compounds without any hit were thinned out: in the full panel of roughly 79,000, 15% have a hit.
Please mark condition met if the recorded growth inhibition is equal to or greater than 70%, and condition not met if it falls below.

Test whether the compound S=C(Nc1cc(Cl)cc(Cl)c1)SCc1ccccc1 records growth inhibition of 70% or higher.
condition met

Test whether the compound C/C(=N/NC(=O)Nc1ccc(N=Nc2ccccc2)cc1)c1ccccn1 records growth inhibition of 70% or higher.
condition not met

Test whether the compound C/C(CCn1[nH]c(=O)ccc1=O)=N\NS(=O)(=O)c1ccc(C)cc1 records growth inhibition of 70% or higher.
condition not met

Test whether the compound COc1ccc(COCCOCc2nc(C#N)c(N)o2)cc1 records growth inhibition of 70% or higher.
condition not met

Test whether the compound O=C1CCC(Cc2ccc(Cl)cc2Cl)C(=O)N1 (stereo unspecified) records growth inhibition of 70% or higher.
condition not met

Test whether the compound COc1cc(C=Nc2ccc(Cl)cc2)ccc1OC(=O)c1ccccc1 records growth inhibition of 70% or higher.
condition not met

Test whether the compound CN1CCS(=O)(=O)C1=O records growth inhibition of 70% or higher.
condition met

Test whether the compound CCCCCCCCNc1ccc(Cl)cc1 records growth inhibition of 70% or higher.
condition met

Test whether the compound CCCCNc1ccc(C(=O)OC2CCN(C)CC2)c(Cl)c1 records growth inhibition of 70% or higher.
condition met

Test whether the compound O=C(/C(=N/O)[n+]1ccccc1)c1ccccc1 records growth inhibition of 70% or higher.
condition not met

Test whether the compound Cc1cc(O)c(/C=N/C(=S)Nc2ccc(S(N)(=O)=O)cc2)c(=O)o1 records growth inhibition of 70% or higher.
condition not met

Test whether the compound CCc1cccc(CC)c1Nc1nc2c(s1)C(=O)c1ccccc1C2=O records growth inhibition of 70% or higher.
condition met

Test whether the compound CC1(C(Cl)(Cl)Cl)C=CC(=NO)C=C1 (stereo unspecified) records growth inhibition of 70% or higher.
condition not met

Test whether the compound NSc1ccc(N)s1 records growth inhibition of 70% or higher.
condition met

Test whether the compound CCOC(=O)NC(NNc1ccc([N+](=O)[O-])cc1[N+](=O)[O-])(C(F)(F)F)C(F)(F)F records growth inhibition of 70% or higher.
condition met

###

assay: NCI Yeast Anticancer Drug Screen. Data for the cln2 rad14 strain (AID 165); conditions: S. cerevisiae cln2 rad14 strain, at 50.0 µM, stronger effect = higher value
The panel holds about 79,000 compounds, 15% with a hit somewhere; the sample as a whole holds those more often.
Please mark Y if the recorded growth inhibition is equal to or greater than 50%, and N if it falls below.

Test whether the compound CCCCCCCCCCCCNCCNCCN records growth inhibition of 50% or higher.
Y

Test whether the compound CCc1cccc(CC)c1N=Nc1c(N)nc(N)[nH]c1=O records growth inhibition of 50% or higher.
N

Test whether the compound CCCCN1CCN(c2ccc([N+](=O)[O-])c3no[n+]([O-])c23)CC1 records growth inhibition of 50% or higher.
Y

Test whether the compound CC(=O)N1c2ccccc2Sc2ccc(C(=O)CCl)cc21 records growth inhibition of 50% or higher.
Y

###

test: NCI Yeast Anticancer Drug Screen. Data for the sgs1 mgt1 strain (AID 161); conditions: S. cerevisiae sgs1 mgt1 strain, at 50.0 µM, stronger effect = higher value
The panel holds about 79,000 compounds, 15% with a hit somewhere; the sample as a whole holds those more often.
Please mark Yes if the recorded growth inhibition is equal to or greater than 60%, and No if it falls below.

Test whether the compound CC(C)(C)c1ccc(C(=O)C[n+]2ccc(Cl)c3ccc(Cl)cc32)cc1 records growth inhibition of 60% or higher.
Yes

Test whether the compound CCCCCCCCCCCCCCNCCN records growth inhibition of 60% or higher.
Yes

Test whether the compound c1ccc(CN2CCC3(CC2)SSC2(CCN(Cc4ccccc4)CC2)SS3)cc1 records growth inhibition of 60% or higher.
No

Test whether the compound CCOC(=O)C(=O)Nc1nc2c(s1)C(=O)c1ccccc1C2=O records growth inhibition of 60% or higher.
Yes

Test whether the compound Cc1nnc2nc3c(nn12)c1ccccc1n3C records growth inhibition of 60% or higher.
No

Test whether the compound O=c1c2cccc3cccc(c4oc5c6cccc7cccc(c(=O)c5c14)c76)c32 records growth inhibition of 60% or higher.
Yes

Test whether the compound CCc1cccc(CC)c1Nc1nc2c(s1)C(=O)c1ccccc1C2=O records growth inhibition of 60% or higher.
Yes

Test whether the compound Cc1cc(NCCCCCCNc2cc(C)nc3cc(N(C)C)ccc23)c2ccc(N(C)C)cc2n1 records growth inhibition of 60% or higher.
No

Test whether the compound CS(=O)(=O)c1ccc(C[N+]23CN4CN(CN(C4)C2)C3)cc1 records growth inhibition of 60% or higher.
No

Test whether the compound [N-]=[N+]=Nc1c([N+](=O)[O-])c(=O)n(-c2ccccc2)c2ccccc12 records growth inhibition of 60% or higher.
Yes

Test whether the compound O=c1ccc2c(COc3ccc(Cl)cc3Cl)c3ccc(O)cc3oc-2c1 records growth inhibition of 60% or higher.
Yes

Test whether the compound Cc1ccc(S(=O)(=O)C(C#N)(CCC(=O)/C=C/c2ccccc2)CCC(=O)/C=C/c2ccccc2)cc1 records growth inhibition of 60% or higher.
No

Test whether the compound CC(=O)O/C=C1\c2ccccc2CCC1c1ccc2ccccc2c1 (configuration not stated) records growth inhibition of 60% or higher.
No

Test whether the compound CCOC(=O)/N=C(\N)SCc1ccccc1 records growth inhibition of 60% or higher.
No

Test whether the compound O=c1[nH]cc(F)c(=O)n1C1CCCCO1 (configuration not stated) records growth inhibition of 60% or higher.
Yes

Test whether the compound COC(=O)c1ccccc1C=C(c1ccc([N+](=O)[O-])cc1)c1ccc([N+](=O)[O-])cc1 records growth inhibition of 60% or higher.
Yes

Test whether the compound Cc1ccc(C(=O)OCCN2CCN(c3ccccc3)CC2)c([N+](=O)[O-])c1OCc1ccccc1 records growth inhibition of 60% or higher.
Yes

Test whether the compound N#CC12CC3=C(N=C1NC1=C(CCc4ccccc41)C2)c1ccccc1CC3 (configuration not stated) records growth inhibition of 60% or higher.
No

Test whether the compound CC1=CC(=O)C=C(Br)C1=O records growth inhibition of 60% or higher.
Yes

Test whether the compound O=C1/C(=C/c2ccc(F)cc2)CNC/C1=C\c1ccc(F)cc1 records growth inhibition of 60% or higher.
Yes

Test whether the compound O=[N+]([O-])c1ncn(C2OC(CO)C(O)C2O)c1S (configuration not stated) records growth inhibition of 60% or higher.
No

Test whether the compound Nc1ccc(O)c2c1C(=O)c1ccccc1C2O (configuration not stated) records growth inhibition of 60% or higher.
Yes

Test whether the compound CSC(=S)OC1CC(n2cnc3c(NC(=O)c4ccccc4)ncnc32)OC1CO[Si](C)(C)C(C)(C)C (configuration not stated) records growth inhibition of 60% or higher.
No

Test whether the compound Cc1cc(S(=O)(=O)c2ccc(Cl)cc2)nc(S(=O)(=O)c2ccc(Cl)cc2)c1C#N records growth inhibition of 60% or higher.
Yes

Test whether the compound Cn1c2nc(-[n+]3ccc(-c4ccccc4)cc3)nc-2c([O-])n(C)c1=O records growth inhibition of 60% or higher.
No

Test whether the compound COC(=O)CSc1nc2[nH]c(SC)c(C(N)=O)c2c(=O)n1-c1ccccc1 records growth inhibition of 60% or higher.
No

Test whether the compound CC1CCC(C)(C)c2cc([N+](=O)[O-])cc([N+](=O)[O-])c21 (configuration not stated) records growth inhibition of 60% or higher.
No

Test whether the compound C=C(Br)CN(C)CC(=C)Br records growth inhibition of 60% or higher.
No

Test whether the compound CCCCCCCC[N+](C)(C)Cc1ccc(C[N+](C)(C)CCCCCCCC)cc1 records growth inhibition of 60% or higher.
No

Test whether the compound CCCCC(CC)CN1C(=O)C2C3C=CC(C3)C2C1=O (configuration not stated) records growth inhibition of 60% or higher.
No

Test whether the compound c1ccc(CCN(Cc2nc3ccccc3[nH]2)Cc2nc3ccccc3[nH]2)cc1 records growth inhibition of 60% or higher.
Yes

Test whether the compound O=C(O)/C(=C\c1cc(I)c(O)c(I)c1)c1ccc(I)cc1 records growth inhibition of 60% or higher.
Yes
